test system: Staphylococcus aureus; test: Antibacterial activity against methicillin-resistant Staphylococcus aureus SR-3637 clinical isolate after 20 hrs by two fold microdilution broth method; format: functional; conditions: SR3637, 20 h
OBSERVATION TYPE: MIC (µg/mL)
The reply should contain only the number, in µg/mL.

CCCCCCCCCCCCCCCCNC(=O)[C@@H]1[C@@H]([C@H]2O[C@@H](n3ccc(=O)[nH]c3=O)[C@H](O)[C@@H]2O)O[C@H](CN)N1C(C)=O.Cl : 32

Now for the compound whose MIC we want.
input: Can you share its MIC? I mean this compound: `CCCCCCCCc1ccc(NC(=O)[C@@H](N)[C@H](O[C@@H]2O[C@H](CN)[C@@H](O)[C@H]2O)[C@H]2O[C@@H](n3ccc(=O)[nH]c3=O)[C@H](O)[C@@H]2O)cc1.O=C(O)C(F)(F)F`
output: 64

====

tested on: Enterococcus faecium; assay: Antibacterial activity against Enterococcus faecium ATCC 19434 after 20 hrs by two fold microdilution broth method; format: functional; settings: ATCC 19434, 20 h
Recorded MIC for the following molecules

Examples with their reported MIC follow.
CCCCCCCCCCCCCCCC(=O)N1[C@H](C(=O)OC)[C@@H]([C@H]2O[C@@H](n3ccc(=O)[nH]c3=O)[C@H](O)[C@@H]2O)O[C@@H]1CCN.Cl : 4 µg/mL
CCCCCCCCCCCCCCCC(=O)N1[C@H](C(=O)O)[C@@H]([C@H]2O[C@@H](n3ccc(=O)[nH]c3=O)[C@H](O)[C@@H]2O)O[C@@H]1CCN : > 64 µg/mL
CCCCCCCCCCCCCCCC(=O)N1[C@H](C(=O)O)[C@@H]([C@H]2O[C@@H](n3ccc(=O)[nH]c3=O)[C@H](O)[C@@H]2O)O[C@@H]1CN : > 64 µg/mL
CCCCCCCCCCCCCCCC(=O)N1[C@H](C(=O)OC(C)(C)C)[C@@H]([C@H]2O[C@@H](n3ccc(=O)[nH]c3=O)[C@H](O)[C@@H]2O)O[C@@H]1CN : 4 µg/mL

input: Reported MIC, molecule `CCCCCCCCCCCCNC(=O)N[C@H](C(=O)O)[C@H](O[C@@H]1O[C@H](CN)[C@@H](O)[C@H]1O)[C@H]1O[C@@H](n2ccc(=O)[nH]c2=O)[C@H](O)[C@@H]1O.O=C(O)C(F)(F)F` : ____
output: > 64 µg/mL

input: Same for `CCCCCCCCCCCCCCCCNC(=O)[C@@H]1[C@@H]([C@H]2O[C@@H](n3ccc(=O)[nH]c3=O)[C@H](O)[C@@H]2O)O[C@H](CCN)N1C(C)=O.Cl`
output: 16 µg/mL

input: Proceed to `CCCCCCCCCCCCCCCC(=O)N1[C@H](C(=O)O)[C@@H]([C@H]2O[C@@H](n3ccc(=O)[nH]c3=O)[C@H](O)[C@@H]2O)O[C@@H]1CCCN`
output: > 64 µg/mL

input: Please give the result for CCCCCCCCCCCCCCCC(=O)O[C@H]1CN[C@@H]([C@H](O[C@@H]2O[C@H](CN)[C@@H](O)[C@H]2O)[C@H]2O[C@@H](n3ccc(=O)[nH]c3=O)[C@H](O)[C@@H]2O)C(=O)N(C)[C@@H]1C(=O)O [DESMETHYLPALMITOYLCAPRAZOL] too.
output: 1 µg/mL

input: Next: `CCCCCCCCCCCCCCCC(=O)N1[C@H](C(=O)OC(C)(C)C)[C@@H]([C@H]2O[C@@H](n3ccc(=O)[nH]c3=O)[C@H](O)[C@@H]2O)O[C@@H]1CCN`
output: 2 µg/mL

input: Can you check `CCCCCCCCCCCCNC(=O)[C@@H](N)[C@H](O[C@@H]1O[C@H](CN)[C@@H](O)[C@H]1O)[C@H]1O[C@@H](n2ccc(=O)[nH]c2=O)[C@H](O)[C@@H]1O.O=C(O)C(F)(F)F` next?
output: 16 µg/mL
